- METHOD_SUMMARY: Cystine reactivity assay
- CONDITION: Table 5; 30° C.; percentage of 3 mM cysteamine
Measured Cystine Reactivity Assay (30° C.) (%) Mean Value, listed per entry for reference.
PROPERTY_MEASURED: Cystine Reactivity Assay (30° C.) (%) Mean Value

[[record]]
compound = "SCC1CCCNC1 (stereo not drawn)"
result = ">90%"

[[record]]
compound = "C[C@@]1(S)CCCNC1"
result = "59-90%"

[[record]]
compound = "N[C@H]1C[C@@H](S)C1"
result = "50-90%"

